# System: CCRF-CEM leukemia
# experimentalDetails: NCI-60 one-dose screen, 48 h (100 = growth as untreated, 0 = no growth, -100 = all killed)
# testContext: 10 µM unless noted
About 83,000 compounds went through this panel and 20% of them were active in at least one assay; those are over-represented in the sample as a whole.
Recorded growth determines the label; the label ranges are low = under 30%, intermediate = from 30% up to 60%, high = 60% and over

Which of the defined bands does the recorded growth of O=C1/C(=C/c2ccc(C(F)(F)F)cc2)COc2ccc(O)c(O)c21 sit within? low

Which of the defined bands does the recorded growth of O=C1NC(=C(Cl)Cl)/C(=N/S(=O)(=O)N2CCCCC2)N1 sit within? low

Which of the defined bands does the recorded growth of CCOC(=O)C1=C(C)N=C2SC=C(c3ccccc3)N2[C@H]1c1cn[nH]c1-c1ccc(Cl)cc1 sit within? low

Which of the defined bands does the recorded growth of CCCCNC1=C(OCC)C(=O)c2ccccc2C1=O sit within? high

Which of the defined bands does the recorded growth of Cc1cc2nc3c4ccccc4n(CCN(C)C)c3nc2cc1C sit within? low

Which of the defined bands does the recorded growth of CCOC(=O)C(=Cc1cccc(C#N)c1)C(=O)OCC sit within? low

Which of the defined bands does the recorded growth of CCOC(=O)Cn1c(=O)c2c3ccccc3n(C)c2n2nnc(-c3ccccc3)c12 sit within? high

Which of the defined bands does the recorded growth of COc1ccc(C2=C/C(=C\c3ccc(Cl)cc3)C(=O)N2/N=C/c2ccc(Cl)cc2)cc1 sit within? high

Which of the defined bands does the recorded growth of CC1=C(C(=O)n2c3ccccc3c3ccccc32)C(c2cccc([N+](=O)[O-])c2)C(C(=O)n2c3ccccc3c3ccccc32)=C(C)N1 sit within? high

Which of the defined bands does the recorded growth of CCN1C(=O)N(CC)C2C1NN=c1s/c(=C\c3ccccc3Br)c(=O)n12 (stereo not given) sit within? low

Which of the defined bands does the recorded growth of O=C(CCCCCCN1CC(=O)N2[C@@H](C3CCCCC3)c3[nH]c4ccccc4c3C[C@H]2C1=O)NO sit within? low

Which of the defined bands does the recorded growth of COc1ccc2c(c1)c(-c1nc(-c3cn(C)c4ncccc34)cs1)cn2CCO sit within? intermediate

Which of the defined bands does the recorded growth of COc1cccc(OC)c1Oc1c(-c2nc3ccccc3s2)c(C)nn1-c1ccccc1 sit within? high

Which of the defined bands does the recorded growth of COc1cc(-c2nc(NC(C)=O)sc2-c2ccnc(NCCNS(=O)(=O)c3ccccc3)n2)ccc1Cl sit within? low

Which of the defined bands does the recorded growth of O=C(O)CCCc1cnc2c3sccc3nc(SCc3c(Cl)cccc3Cl)n12 sit within? intermediate

Which of the defined bands does the recorded growth of CC(O)c1ncc(/C=C2\SC(=S)N(Cc3ccccc3)C2=O)s1 (stereo not given) sit within? high

Which of the defined bands does the recorded growth of Cc1[nH]c(C(=O)Nc2cccc(OC3CCNCC3)c2)c(Cl)c1Cl sit within? intermediate
